The molecules listed here are annotated with their growth.
# Test system: MOLT-4 leukemia
# test-name: NCI-60 one-dose screen, 48 h (100 = growth as untreated, 0 = no growth, -100 = all killed)
# condition-notes: 10 µM unless noted
# Description: Growth inhibition of the MOLT-4 human tumor cell line is measured as a screen for anti-cancer activity. Cells are grown in 96 well plates and exposed to the test compound for 48 hours. Compounds are tested at a single concentration, which is 10^-5 M for most compounds. The reported endpoint is percent growth (GI% or GIPRCNT), where numbers from 0 - 100% represent growth inhibition, and numbers from -100% - 0 represent cell death. For example, a value of 40 represents 60% growth inhibition. […]
The panel holds about 83,000 compounds, 20% with a hit somewhere; the sample as a whole holds those more often.

- molecule: "CCOC(=O)CC1CSC(Nc2ccccc2)=N1 (centres undefined)"
  target-system: "MOLT-4 leukemia"
  growth / %: 101
- molecule: "COC(=O)c1cc(Br)ccc1O"
  target-system: "MOLT-4 leukemia"
  growth / %: 103
- molecule: "CN(C)CCCNC(=O)c1cncnc1Nc1ccc(OCc2cccc(F)c2)c(Cl)c1"
  target-system: "MOLT-4 leukemia"
  growth / %: -40.9
- molecule: "Cc1ccc(-c2nc3nc(-c4ccccc4)nc(N4CCCN(S(C)(=O)=O)CC4)c3o2)cc1"
  target-system: "MOLT-4 leukemia"
  growth / %: 56.3
- molecule: "O=C(Cc1ccc(/C=C/C(=O)c2ncc[nH]2)cc1)Nc1cc(C(F)(F)F)cc(C(F)(F)F)c1"
  target-system: "MOLT-4 leukemia"
  growth / %: 67.7
- molecule: "Cc1ccc(C)c(/C=C2\\CN(C(=O)OC(C)(C)C)C/C(=C\\c3cc(C)ccc3C)C2=O)c1"
  target-system: "MOLT-4 leukemia"
  growth / %: 7.4
- molecule: "Cc1ccc(-c2csc(NC(=O)c3ccccc3CN3C(=O)c4ccccc4C3=O)n2)cc1"
  target-system: "MOLT-4 leukemia"
  growth / %: 93.4
- molecule: "Cc1c(Cl)cccc1C(=O)Nc1nc2c(s1)CN(C(=O)c1ccc(C(F)(F)F)cc1)CC2"
  target-system: "MOLT-4 leukemia"
  growth / %: 21.8
- molecule: "CC1(C)N=C(N)N=C(N)N1c1cccc(CCc2ccccc2)c1"
  target-system: "MOLT-4 leukemia"
  growth / %: 30.5
- molecule: "CC1=C(CCC(C)NCc2ccc(OCCCN3CCCCC3)cc2)C(C)(C)CCC1 (centres undefined)"
  target-system: "MOLT-4 leukemia"
  growth / %: -41.7
- molecule: "COc1ccc(C(=O)c2cc3c(N)c(C(=O)Nc4ccccc4)sc3nc2C)cc1"
  target-system: "MOLT-4 leukemia"
  growth / %: 18.3
- molecule: "COc1cccc(-c2cc(-c3cccc(Cl)c3)c(C#N)c(=O)[nH]2)c1"
  target-system: "MOLT-4 leukemia"
  growth / %: 64.8
- molecule: "C=C(c1ccc(OC)c(/C=C/C(=O)c2ccc3c(c2)OCO3)c1)c1cc(OC)c(OC)c(OC)c1"
  target-system: "MOLT-4 leukemia"
  growth / %: 11.1
- molecule: "CCN1C(=O)N(CC)C2C1NN=c1s/c(=C\\c3ccc[nH]3)c(=O)n12 (centres undefined)"
  target-system: "MOLT-4 leukemia"
  growth / %: 20.4
